# system_name: Histamine H1 receptor (Cavia porcellus, UniProt P31389)
# Sequence (P31389 whole entry): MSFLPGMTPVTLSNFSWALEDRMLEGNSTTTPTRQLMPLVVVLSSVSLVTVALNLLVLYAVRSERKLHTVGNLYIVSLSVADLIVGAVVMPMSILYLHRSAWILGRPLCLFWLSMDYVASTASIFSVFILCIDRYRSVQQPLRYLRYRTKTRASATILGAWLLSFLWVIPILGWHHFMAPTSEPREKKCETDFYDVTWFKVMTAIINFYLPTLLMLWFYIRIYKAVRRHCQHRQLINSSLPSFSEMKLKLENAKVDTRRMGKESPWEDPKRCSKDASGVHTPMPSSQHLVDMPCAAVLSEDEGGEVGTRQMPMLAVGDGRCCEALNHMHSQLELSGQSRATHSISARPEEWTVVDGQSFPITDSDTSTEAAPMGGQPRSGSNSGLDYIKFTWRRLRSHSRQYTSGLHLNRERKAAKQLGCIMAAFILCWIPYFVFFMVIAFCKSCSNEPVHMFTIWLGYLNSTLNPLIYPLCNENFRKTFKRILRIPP
# run_description: Compound was tested for the contractile effects antagonized by mepyramine (1-1000 nM) against Histamine H1 receptor of guinea pig aorta.
# Assay type: functional
# experimental_conditions: read-out: pA2 (converted)
Threshold rule: Kb greater than or equal to 1 nM is T; below that, F.

line_notation	class
CN(C)CCc1c[nH]c(-c2cccc(Br)c2)n1	T
CNCCc1c[nH]c(-c2cccc(C(F)(F)F)c2)n1	F
CN(C)CCc1c[nH]c(-c2cccc(C(F)(F)F)c2)n1	T
NCCc1c[nH]c(-c2cccc(Br)c2)n1	T

====

# system_name: Histamine H3 receptor (Cavia porcellus, UniProt Q9JI35)
# Sequence (Q9JI35 whole entry): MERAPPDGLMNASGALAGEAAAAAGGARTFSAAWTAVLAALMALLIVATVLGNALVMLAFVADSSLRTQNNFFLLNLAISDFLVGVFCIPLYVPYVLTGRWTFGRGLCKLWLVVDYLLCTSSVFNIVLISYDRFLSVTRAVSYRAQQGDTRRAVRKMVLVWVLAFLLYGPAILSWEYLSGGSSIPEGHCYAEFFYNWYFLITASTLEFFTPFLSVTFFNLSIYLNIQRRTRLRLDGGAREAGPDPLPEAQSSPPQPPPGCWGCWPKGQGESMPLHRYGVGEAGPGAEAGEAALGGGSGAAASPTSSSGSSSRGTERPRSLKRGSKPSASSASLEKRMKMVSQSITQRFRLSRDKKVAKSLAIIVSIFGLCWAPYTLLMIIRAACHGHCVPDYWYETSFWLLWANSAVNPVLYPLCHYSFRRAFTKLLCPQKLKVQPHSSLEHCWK
# run_description: Compound was tested for the agonist activity against histamine H3 receptor of guinea pig ileum
# Format: functional, tissue-based
# experimental_conditions: read-out: pA2 (converted)

line_notation	Kb (µM)
NCCc1cnc(-c2cccc(C(F)(F)F)c2)[nH]1	6.17
CNCCc1c[nH]c(-c2cccc(C(F)(F)F)c2)n1	4.37
CNCCc1c[nH]c(-c2cccc(Br)c2)n1	11.7
CN(C)CCc1c[nH]c(-c2cccc(Br)c2)n1	1.45
CN(C)CCc1c[nH]c(-c2cccc(C(F)(F)F)c2)n1	1.12
NCCc1c[nH]c(-c2cccc(Br)c2)n1	6.31
CCNCCc1c[nH]c(-c2cccc(C(F)(F)F)c2)n1	2.34
